targetSystem: human mAChR M4 (Homo sapiens)
Construct: expressed in transfected cells
Sequence (P08173 1-479): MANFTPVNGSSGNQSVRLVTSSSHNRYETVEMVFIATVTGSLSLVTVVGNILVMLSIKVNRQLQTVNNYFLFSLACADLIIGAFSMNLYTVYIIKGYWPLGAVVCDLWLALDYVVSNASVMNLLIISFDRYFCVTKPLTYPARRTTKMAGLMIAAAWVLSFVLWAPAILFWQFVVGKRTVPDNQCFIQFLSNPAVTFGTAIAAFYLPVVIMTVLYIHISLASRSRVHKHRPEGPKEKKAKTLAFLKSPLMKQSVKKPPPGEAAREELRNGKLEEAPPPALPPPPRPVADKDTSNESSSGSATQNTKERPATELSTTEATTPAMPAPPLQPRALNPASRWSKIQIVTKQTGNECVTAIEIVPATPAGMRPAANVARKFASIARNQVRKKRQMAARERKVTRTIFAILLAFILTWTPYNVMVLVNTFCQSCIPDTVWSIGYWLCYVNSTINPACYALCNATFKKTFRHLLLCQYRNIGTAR
assayExplanation: mAChR M4 cell-based functional assay (calcium mobilization, CHO-K1 hM4-Gqi5 cells)
conditionParameters: CHO-K1, % ACh maximum at 30 μM; human M4
experimentalEndpoint: Emax at 30 µM (%)
Numbers only, in %.

Worked examples follow.
| compound | Emax at 30 µM (%) |
| --- | --- |
| COc1cnccc1CNC(=O)c1cc(C)c(N2CCc3ncc(C(F)(F)F)cc3C2)nn1 | 102 |
| Cc1cnccc1CNC(=O)c1cc(C)c(N2CCc3ncc(C(F)(F)F)cc3C2)nn1 | 106 |
| Cc1cc(C#N)cnc1N1CCc2ncc(CC(F)(F)F)cc2C1 | 76 |

// next item, Emax at 30 µM requested
Answer briefly: Emax at 30 µM recorded on human mAChR M4 (Homo sapiens) for Cc1cc(C(=O)NCc2cncs2)nnc1N1CCc2ncc(-c3ccnn3C)cc2C1
102
